Data credit: ChEMBL document CHEMBL4513216

method: Toxicity liver stage against HepG2, at 10uM
Type: cell-based
Parameters: test concentration 10 uM, cell line HepG2-A16-CD81EGFP
conditions used: human, HepG2-A16-CD81EGFP cells; read-out: INHIBITION
experimental readout: cytotoxicity at 10 µM (%)
Please respond with the number in % and leave the unit unwritten.

// worked examples, cytotoxicity at 10 µM included
{"columns": ["compound", "experimental readout", "numeric value"],
 "data": [
  ["COC(=O)C(NC(=O)c1ccc(N(C)C)nc1)c1ccccc1 (stereo not drawn)", "cytotoxicity at 10 µM", 4.15],
  ["O=C(NCc1cccs1)[C@@H]1CC[C@@H]2[C@@H](CCN2c2ncccn2)O1", "cytotoxicity at 10 µM", -0.53],
  ["O=C(CCn1c(=O)oc2ccccc21)NCC(O)c1ccc(Cl)cc1 (stereo not drawn)", "cytotoxicity at 10 µM", -1.25],
  ["Cn1cc(C(=O)N2CCN(Cc3ccccn3)CC2)ccc1=O", "cytotoxicity at 10 µM", 6.85],
  ["CCc1nc(Cn2ccnc2-c2nccn2C)no1", "cytotoxicity at 10 µM", -42],
  ["Cc1cc(C)nc(N2CC[C@@]3(O)CCN(S(=O)(=O)N(C)C)C[C@H]3C2)n1", "cytotoxicity at 10 µM", 3.5]
]}

The compound `O=C(C1CCCCC1)N1CCN(Cc2nc(-c3ccco3)no2)CC1` showed cytotoxicity at 10 µM equal to -1.01

The compound `Cn1ncnc1NS(=O)(=O)c1ccc(F)cc1` showed cytotoxicity at 10 µM equal to 7.66

The compound `Cc1nc(N2CCCC2)nc2c1CCN(C(=O)C1CCCC1)CC2` showed cytotoxicity at 10 µM equal to -0.265

The compound `Cc1noc(-c2ccc(N(C)Cc3cccnc3)nc2)n1` showed cytotoxicity at 10 µM equal to -1.24

* * *

Measured cytotoxicity at 10 µM by item
method: Toxicity liver stage against HepG2, at 10uM
Format: cell-based
Parameters: test concentration 10 uM, cell line HepG2-A16-CD81EGFP
conditions used: human, HepG2-A16-CD81EGFP cells; read-out: INHIBITION
Please respond with the number in % and leave the unit unwritten.

{"columns": ["compound", "experimental readout", "numeric value"],
 "data": [
  ["COC(=O)c1ccc(NC(C)c2ccc3c(c2)NC(=O)CO3)nn1 (centres undefined)", "cytotoxicity at 10 µM", -4.75],
  ["Cc1ccc(-c2noc(C(O)CC(C)C)n2)nn1 (centres undefined)", "cytotoxicity at 10 µM", -7.72],
  ["CN(C)C(=O)c1cnc2n1CCN(Cc1cccnc1)C2", "cytotoxicity at 10 µM", -67],
  ["CCCC1CCN(C(=O)c2coc(COc3ccc(OC)cc3)n2)C1 (centres undefined)", "cytotoxicity at 10 µM", -0.551],
  ["CN(C)CCNC(=O)[C@H]1C[C@H]2CN(C(=O)NCc3ccccc3)C[C@@H]1O2", "cytotoxicity at 10 µM", 1.96],
  ["Cc1ncsc1C(=O)OCC1CCN(c2ccccc2)C1 (centres undefined)", "cytotoxicity at 10 µM", 27.5],
  ["CC(=O)NC1CCCN(C(=O)Nc2nnc(C(C)C)s2)C1 (centres undefined)", "cytotoxicity at 10 µM", 12.6],
  ["Cc1ccc([C@H]2CN(CCO)C[C@@H]2NC(=O)CN2CCCCC2=O)o1", "cytotoxicity at 10 µM", 2.1],
  ["NCCC(=O)NCC1(O)CCCN(c2ccnc3cccnc23)C1 (centres undefined)", "cytotoxicity at 10 µM", 0.72],
  ["CC(=O)N1CCOCC2(C1)CN(S(C)(=O)=O)CCO2 (centres undefined)", "cytotoxicity at 10 µM", 2.84]
]}

The compound `COCCCC(=O)N(CCC(=O)O)Cc1ccc(F)c(F)c1` showed cytotoxicity at 10 µM equal to 4.91

The compound `CC(C)c1nnc(NC(=O)NCc2ccnc(N(C)C)c2)s1` showed cytotoxicity at 10 µM equal to 7.29

The compound Cc1cc(C)cc(N2CC(c3nnc(N)s3)CC2=O)c1 (centres undefined) showed cytotoxicity at 10 µM equal to 4.29

The compound `CCOc1ccc(SCCS(=O)(=O)CC)cc1` showed cytotoxicity at 10 µM equal to -2.91

The compound `O=C(Nc1nc2c(s1)CN(S(=O)(=O)C1CC1)CC2)c1cccc(Cl)c1` showed cytotoxicity at 10 µM equal to 1.55

* * *

method: Toxicity liver stage against HepG2, at 10uM
Type: cell-based
Set-up: test concentration 10 uM, cell line HepG2-A16-CD81EGFP
conditions used: human, HepG2-A16-CD81EGFP cells; read-out: INHIBITION
experimental readout: cytotoxicity at 10 µM (%)
Please respond with the number in % and leave the unit unwritten.

// worked examples, cytotoxicity at 10 µM included
{"columns": ["compound", "cytotoxicity at 10 µM / %"],
 "data": [
  ["CC1=C[C@@H](CN2CCOCC2)[C@H](C(C)C)C[C@H]1Cc1nnc(C)o1", -5.07],
  ["Cc1cc(OCC(=O)N2CCCC(c3ccn[nH]3)C2)no1 (stereo not drawn)", 0.0241],
  ["NC(=O)CCN(C(=O)CSc1ccc(F)cc1)c1ccc(F)cc1", -2.17]
]}

The compound `Cc1cnc(C(=O)N2C[C@H]3CN(Cc4cccnc4)C[C@H]3C2)cn1` showed cytotoxicity at 10 µM equal to 2.4

The compound `CCc1nnc2n1CCN(C(=O)c1cc(C)n(-c3ccccc3)c1C)C2` showed cytotoxicity at 10 µM equal to -8.7

The compound `Cc1csc(N2CCN(C(=O)Cc3ccc(C)s3)CC2)n1` showed cytotoxicity at 10 µM equal to -7.05

The compound `CCC(=O)CNC(=O)CCn1nc2ccccn2c1=O` showed cytotoxicity at 10 µM equal to 9.5

The compound Cc1ccc(-c2noc(CN3CCOC(CN(C)C)C3)n2)cc1F (stereo not drawn) showed cytotoxicity at 10 µM equal to -5.48

* * *

method: Toxicity liver stage against HepG2, at 10uM
Assay type: cell-based
Design: test concentration 10 uM, cell line HepG2-A16-CD81EGFP
conditions used: human, HepG2-A16-CD81EGFP cells; read-out: INHIBITION
Measured cytotoxicity at 10 µM by item
Please respond with the number in % and leave the unit unwritten.

{"columns": ["compound", "readout units", "numeric value"],
 "data": [
  ["Cn1cc(C(=O)NCc2cncc3c2CCN(S(C)(=O)=O)C3)cn1", "%", -105],
  ["Cc1ccc(NC2CCN(C(=O)c3cccnc3O)CC2)nn1", "%", -27.6],
  ["Cc1ccc(C(=O)N2CCN3C[C@H](Oc4cccnc4)C[C@H]3C2)cn1", "%", 4.66],
  ["CCOCCC(=O)NCC(C)c1ccsc1 (centres undefined)", "%", 15.1],
  ["COc1ccc(CN2C[C@H]3CC[C@@H](C2)N(S(=O)(=O)C2CC2)C3)cc1", "%", -1.12]
]}

The compound `CCc1noc(CNc2c(F)cccc2-n2cccn2)n1` showed cytotoxicity at 10 µM equal to -5.14

The compound Cc1nc2cc(C(=O)N3CCCC(n4ccnc4)C3)ccc2n1C (centres undefined) showed cytotoxicity at 10 µM equal to -8.44

The compound Cc1ccccc1C(CC(=O)NCC(N)=O)c1ccccc1 (centres undefined) showed cytotoxicity at 10 µM equal to 5.17

The compound `Cn1nc2c(cc1=O)CN(Cc1nc(C(C)(C)C)no1)CC2` showed cytotoxicity at 10 µM equal to -2.86

The compound `CC(=O)c1cc(Br)cc(F)c1OCC(=O)NC(C)C` showed cytotoxicity at 10 µM equal to -9.46

The compound `Cc1ccc(-n2nnc(C(=O)Nc3cc(C)nn3C)c2C2CC2)cc1` showed cytotoxicity at 10 µM equal to 0.888

The compound CNC(=O)NC(C)c1c(F)cccc1Cl (centres undefined) showed cytotoxicity at 10 µM equal to -6.2

The compound `c1cc(-c2ccc3c(c2)CCC32CCN(c3nncs3)CC2)co1` showed cytotoxicity at 10 µM equal to -2.07

* * *

method: Toxicity liver stage against HepG2, at 10uM
Assay type: cell-based
Parameters: test concentration 10 uM, cell line HepG2-A16-CD81EGFP
conditions used: human, HepG2-A16-CD81EGFP cells; read-out: INHIBITION
experimental readout: cytotoxicity at 10 µM (%)
Please respond with the number in % and leave the unit unwritten.

{"columns": ["compound", "cytotoxicity at 10 µM [%]"],
 "data": [
  ["Cc1nc(CN2C(=O)C[C@@H]3[C@@H]2CCN3S(=O)(=O)C2CC2)cs1", -124]
]}

The compound `COCC[C@]1(O)CCN(C(=O)c2cnn(C)c2)C[C@H]1C` showed cytotoxicity at 10 µM equal to 2.59

The compound `Cn1ccc(C(=O)NCc2cccc(CN3CCCC3)c2)cc1=O` showed cytotoxicity at 10 µM equal to -3.07

The compound Nc1nc(CC(=O)N2CCCC(CCc3cccc(F)c3)C2)cc(=O)[nH]1 (stereo not drawn) showed cytotoxicity at 10 µM equal to -6.12

The compound Cc1nn(C)c(N2CCOCC2)c1CNC1CCOc2ccccc21 (stereo not drawn) showed cytotoxicity at 10 µM equal to -7.44
